- System Tested: HLA-C*06:02
- Run Description: IEDB peptide-MHC binding, purified MHC/direct/fluorescence; filed as Kd, often an IC50 or EC50 that approximates it; bounds were set here for any values at or beyond the usual limits of such assays
- Condition Details: source organism: Hepatovirus A
Measured Parameter: Kd

Record request: Kd value, item YMYAVSGAL ≥ 20 µM

###

- System Tested: HLA-A*02:03
- Run Description: IEDB peptide-MHC binding, purified MHC/competitive/fluorescence; filed as Kd, often an IC50 or EC50 that approximates it; bounds were set here for any values at or beyond the usual limits of such assays
- Condition Details: source organism: Vibrio antiquarius
Measured Parameter: Kd (nM)
I only need the number, in nM, no unit after it.

Record request: Kd value, item LVAPHMAMM 1140

###

- System Tested: HLA-B*57:01
- Run Description: IEDB peptide-MHC binding, purified MHC/direct/fluorescence; filed as Kd, often an IC50 or EC50 that approximates it; bounds were set here for any values at or beyond the usual limits of such assays
- Condition Details: source organism: Campylobacter jejuni
pKd: −log10 of the molar value.
Measured Parameter: pKd

Which measured pKd belongs to YWDQVTFFY , tested on HLA-B*57:01? ≤ 4.70

###

- System Tested: HLA-B*40:02
- Run Description: IEDB peptide-MHC binding, purified MHC/competitive/radioactivity; filed as Kd, often an IC50 or EC50 that approximates it; bounds were set here for any values at or beyond the usual limits of such assays
- Condition Details: source organism: Lymphocytic choriomeningitis virus (strain Armstrong)
Measured Parameter: pKd
Worth noting: pKd values are minus log10 of concentrations stated in mol/L.

Which measured pKd belongs to ADNMITEML , tested on HLA-B*40:02? 5.85

###

- System Tested: HLA-A*01:01
- Run Description: IEDB peptide-MHC binding, purified MHC/competitive/radioactivity; filed as Kd, often an IC50 or EC50 that approximates it; bounds were set here for any values at or beyond the usual limits of such assays
- Condition Details: source organism: Mammarenavirus whitewaterense
Measured Parameter: pKd
Worth noting: pKd values are minus log10 of concentrations stated in mol/L.

Which measured pKd belongs to YVSSIFLHL , tested on HLA-A*01:01? 6.29

###

- System Tested: HLA-A*29:02
- Run Description: IEDB peptide-MHC binding, purified MHC/competitive/radioactivity; filed as Kd, often an IC50 or EC50 that approximates it; bounds were set here for any values at or beyond the usual limits of such assays
- Condition Details: source organism: Mammarenavirus juninense
pKd: −log10 of the molar value.
Measured Parameter: pKd

Record request: pKd value, item PYIGSRSQI ≤ 4.68

###

- System Tested: HLA-A*69:01
- Run Description: IEDB peptide-MHC binding, purified MHC/competitive/fluorescence; filed as Kd, often an IC50 or EC50 that approximates it; bounds were set here for any values at or beyond the usual limits of such assays
- Condition Details: source organism: Four Corners hantavirus
pKd: −log10 of the molar value.
Measured Parameter: pKd

Which measured pKd belongs to KSAFYQSYL , tested on HLA-A*69:01? ≤ 4.70

###

- System Tested: HLA-A*68:01
- Run Description: IEDB peptide-MHC binding, purified MHC/competitive/radioactivity; filed as Kd, often an IC50 or EC50 that approximates it; bounds were set here for any values at or beyond the usual limits of such assays
- Condition Details: source organism: Dengue virus 4 Philippines/H241/1956
Measured Parameter: Kd (nM)
I only need the number, in nM, no unit after it.

Record request: Kd value, item FTTNIWMKFR 1.73

###

- System Tested: HLA-A*69:01
- Run Description: IEDB peptide-MHC binding, purified MHC/direct/fluorescence; filed as Kd, often an IC50 or EC50 that approximates it; bounds were set here for any values at or beyond the usual limits of such assays
- Condition Details: source organism: Vibrio cholerae
pKd: −log10 of the molar value.
pKd values for the sequences below.

YLKKGRLSL	≤ 4.70

Record request: pKd value, item RYDYANLCQ ≤ 4.70

###

- System Tested: HLA-B*15:01
- Run Description: IEDB peptide-MHC binding, purified MHC/competitive/fluorescence; filed as Kd, often an IC50 or EC50 that approximates it; bounds were set here for any values at or beyond the usual limits of such assays
- Condition Details: source organism: Burkholderia orbicola
Measured Parameter: pKd
Worth noting: pKd values are minus log10 of concentrations stated in mol/L.

Record request: pKd value, item ASAAHLAAY 6.81

###

- System Tested: HLA-A*02:06
- Run Description: IEDB peptide-MHC binding, purified MHC/competitive/fluorescence; filed as Kd, often an IC50 or EC50 that approximates it; bounds were set here for any values at or beyond the usual limits of such assays
- Condition Details: source organism: Vibrio antiquarius
Measured Parameter: Kd (nM)
I only need the number, in nM, no unit after it.

Record request: Kd value, item LVAPHMAMM 53.2

###

- System Tested: HLA-A*32:01
- Run Description: IEDB peptide-MHC binding, purified MHC/competitive/radioactivity; filed as Kd, often an IC50 or EC50 that approximates it; bounds were set here for any values at or beyond the usual limits of such assays
- Condition Details: source organism: Dengue virus 4 Philippines/H241/1956
Measured Parameter: Kd

Record request: Kd value, item HMILVVVTT ≥ 77.8 µM

###

- System Tested: HLA-B*07:02
- Run Description: IEDB peptide-MHC binding, purified MHC/direct/fluorescence; filed as Kd, often an IC50 or EC50 that approximates it; bounds were set here for any values at or beyond the usual limits of such assays
- Condition Details: source organism: Influenza A virus (A/SW/KS/13481-T/00(H1N2))
Measured Parameter: Kd

Record request: Kd value, item HEKGINPNY ≥ 20 µM

###

- System Tested: HLA-B*44:02
- Run Description: IEDB peptide-MHC binding, purified MHC/direct/fluorescence; filed as Kd, often an IC50 or EC50 that approximates it; bounds were set here for any values at or beyond the usual limits of such assays
- Condition Details: source organism: Influenza A virus (A/goose/Guangxi/1097/2004(H5N1))
Measured Parameter: Kd

Record request: Kd value, item KYTSGRQEK ≥ 20 µM

###

- System Tested: HLA-B*53:01
- Run Description: IEDB peptide-MHC binding, purified MHC/competitive/radioactivity; filed as Kd, often an IC50 or EC50 that approximates it; bounds were set here for any values at or beyond the usual limits of such assays
- Condition Details: source organism: Mammarenavirus lassaense
Measured Parameter: Kd (nM)
I only need the number, in nM, no unit after it.

Record request: Kd value, item MPDCGMSVLA 442

###

- System Tested: HLA-A*01:01
- Run Description: IEDB peptide-MHC binding, purified MHC/direct/fluorescence; filed as Kd, often an IC50 or EC50 that approximates it; bounds were set here for any values at or beyond the usual limits of such assays
- Condition Details: source organism: Marburg virus - Musoke, Kenya, 1980
Measured Parameter: Kd

Record request: Kd value, item YLAPSYRNF ≥ 20 µM

###

- System Tested: HLA-A*03:01
- Run Description: IEDB peptide-MHC binding, purified MHC/direct/fluorescence; filed as Kd, often an IC50 or EC50 that approximates it; bounds were set here for any values at or beyond the usual limits of such assays
- Condition Details: source organism: Salmonella enterica
Measured Parameter: Kd

Record request: Kd value, item LLQGVPFHV ≥ 20 µM

###

- System Tested: HLA-A*03:01
- Run Description: IEDB peptide-MHC binding, purified MHC/competitive/radioactivity; filed as Kd, often an IC50 or EC50 that approximates it; bounds were set here for any values at or beyond the usual limits of such assays
- Condition Details: source organism: Vaccinia virus WR
Kd values for the sequences below.
I only need the number, in nM, no unit after it.

Record request: Kd value, item VSMMSMYGK 15.2

Record request: Kd value, item KLMEEYLRR 11.4

Record request: Kd value, item TLNHVLALK 2.47

###

- System Tested: HLA-B*27:05
- Run Description: IEDB peptide-MHC binding, purified MHC/direct/fluorescence; filed as Kd, often an IC50 or EC50 that approximates it; bounds were set here for any values at or beyond the usual limits of such assays
- Condition Details: source organism: Vibrio cholerae
pKd: −log10 of the molar value.
pKd values for the sequences below.

YLKKGRLSL	≤ 4.70

Record request: pKd value, item RYDYANLCQ ≤ 4.70

###

- System Tested: HLA-B*08:01
- Run Description: IEDB peptide-MHC binding, purified MHC/competitive/fluorescence; bounds were set here for any values at or beyond the usual limits of such assays
- Condition Details: source organism: Rattus norvegicus
Measured Parameter: IC50

Record request: IC50 value, item SLLERGQQLGV ≥ 20 µM

###

- System Tested: HLA-A*02:12
- Run Description: IEDB peptide-MHC binding, purified MHC/direct/fluorescence; filed as Kd, often an IC50 or EC50 that approximates it; bounds were set here for any values at or beyond the usual limits of such assays
- Condition Details: source organism: Campylobacter jejuni
Measured Parameter: Kd

Record request: Kd value, item YWDQVTFFY ≥ 20 µM
